Data provenance is paper PMC11206245.

assay: Study A dose-escalation protocol: 17-AAG pharmacokinetics in plasma (HPLC); format: in vivo; details: female, dog, 250 mg/m2; Study A, dogs, plasma, single IV dose 250 mg/m^2, mean ± SD; read-out: Cmax
measured_metric: Cmax

Cmax reading for C=CCNC1=C2C[C@@H](C)C[C@H](OC)[C@H](O)[C@@H](C)/C=C(\C)[C@H](OC(N)=O)[C@@H](OC)/C=C\C=C(/C)C(=O)NC(=CC1=O)C2=O [17-AAG, 17-(allylamino)-17-demethoxygeldanamycin] : 8610 ng/mL

###

Assay: Study B multiple administrations of 150 mg/m^2: 17-AAG pharmacokinetics in plasma (HPLC)
Assay type: in vivo, dogs
Details: both sexes, dog, plasma, iv, 150 mg/m2, AUC 0–8 h, Study B, dogs, 2nd of three IV administrations of 150 mg/m^2 at 48 h intervals, mean ± SD
Method: Study B involved 9 healthy dogs (8 females and 1 male), including the 4 females from Study A after wash-out and upon confirmation of regular laboratory evaluations. […] Tolerability evaluations were performed via clinical examinations and blood sampling for laboratory evaluation after each treatment. […] Cmax, half-life (t ½), distribution volume, and clearance were also determined. Data were analyzed in Excel and WinNonlin using a mono-compartmental model.
measured_metric: AUC(0-t)
Show the value, then the unit it is measured in.

AUC(0-t) reading for C=CCNC1=C2C[C@@H](C)C[C@H](OC)[C@H](O)[C@@H](C)/C=C(\C)[C@H](OC(N)=O)[C@@H](OC)/C=C\C=C(/C)C(=O)NC(=CC1=O)C2=O [17-AAG, 17-(allylamino)-17-demethoxygeldanamycin] : 7050 ng·h/mL
